Reference source for all entries: patent US20100249419A1

# System Name: aggregated Aβ (Aβ1-42) amyloid (Homo sapiens, UniProt P05067)
# Construct: Aβ1-42 (manufactured by Wako) was dissolved in phosphate buffer (pH 7.4); purchased Wako
# Sequence (P05067 672-713): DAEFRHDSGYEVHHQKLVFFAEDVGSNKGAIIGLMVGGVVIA
# Protocol Notes: In vitro binding test: inhibition of [^125I]3′-I-BTA-0 binding to amyloid
# Applied Conditions: unit inferred
pIC50: −log10 of the molar value.
Observable: pIC50

Problem: What value of pIC50 has been reported for the following molecule? OCCOc1ccc(-c2cn3cc(I)ccc3n2)cc1
Result: > 7.00

====

# System Name: aggregated Aβ (Aβ1-42) amyloid (Homo sapiens)
# Construct: Aβ1-42 (manufactured by Wako) was dissolved in phosphate buffer (pH 7.4); purchased Wako
# Protocol Notes: In vitro binding test: inhibition of [^125I]3′-I-BTA-0 binding to amyloid
# Applied Conditions: [^125I]3′-I-BTA-0 400 pmol/L, amyloid 1 μmol/L, 22° C., 3 hours
Observable: pIC50
To interpret pIC50, take it as minus log10 of a concentration measured in moles per litre.

Problem: Please report the recorded pIC50 for OCCOc1ccc(-c2cn3cc(I)ccc3n2)cc1 [Compound 3] .
Result: 7.17
